- Experimental Protocol: Biological Test Example 5: fraction unbound in human plasma (equilibrium dialysis)
- Assay type: in vitro ADME
Classify by measured fraction unbound: TRUE if it is equal to or exceeds 0.1, FALSE if it is smaller.

Does the reported fraction unbound for C[C@@H](c1ccc(-c2ccc(=O)n(C)c2)cc1)N1CC[C@](CCCO)(c2ccccc2)OC1=O fall at or above the 0.1 mark?
TRUE

Does the reported fraction unbound for C[C@@H](c1ccc(-c2ccn(C)c(=O)c2)cc1)N1CC[C@](CC(C)(C)O)(c2ccccc2)OC1=O fall at or above the 0.1 mark?
FALSE

Others:
Does the reported fraction unbound for C[C@@H](c1ccc(-c2ccc(=O)n(C)c2)cc1)N1CC[C@](CC(C)(C)O)(c2ccc(F)cc2)OC1=O fall at or above the 0.1 mark?
TRUE

Does the reported fraction unbound for CC[C@@H](c1ccc(-c2ccc(=O)n(CC)c2)cc1)N1CC[C@](CC(C)(C)O)(c2ccccc2)OC1=O fall at or above the 0.1 mark?
FALSE

Does the reported fraction unbound for C[C@@H](c1ccc(-c2ccn(CC(F)(F)F)c(=O)c2)cc1)N1CC[C@](CC(C)(C)O)(c2ccccc2)OC1=O fall at or above the 0.1 mark?
FALSE

Does the reported fraction unbound for CCn1cc(-c2ccc([C@H](C)N3CC[C@](CC(C)(C)O)(c4ccccc4)OC3=O)cc2)ccc1=O fall at or above the 0.1 mark?
TRUE
